// values below are reported GI50
- Test system: OVCAR-5
- Experimental Details: NCI tumour cell line growth inhibition, 48 h
Activity calls are given as the source filed them. Rule as the data show it: active = GI50 up to about 1.1 µM and inactive = higher.

// known answers, use as guide
> print(dat)
                                   compound      measured.result
1             Nc1nc(Cl)cc(NCC2(CO)CC=CC2)n1  > 100 µM (inactive)
2           NCCCNCCCCN(CCCN)/[N+]([O-])=N\O  > 100 µM (inactive)
3  O=C(/C=C/c1ccc(O)c(O)c1)NC(COC(=O)/C=C/c1ccc(O)c(O)c1)C(=O)O (configuration not stated)  > 100 µM (inactive)
4  C=CCc1ccc(O)c(-c2cc(C3Oc4c(-c5cc(CC=C)ccc5O)cc(O)cc4[C@@H]3CO)ccc2O)c1 (some centres not stated)   56.1 µM (inactive)
5  CC1(CNCc2ccccc2)CC(CCc2ccccc2)N(C(=O)c2ccc([N+](=O)[O-])cc2)C1Cc1ccc(O)cc1 (configuration not stated)   17.6 µM (inactive)
6      COc1ccc2[nH]c3c(C)c4ncccc4c(C)c3c2c1   5.61 µM (inactive)

Request the reported GI50 associated with O=c1[nH]nc(-c2ccccc2)n1/N=C/c1ccc([N+](=O)[O-])o1
10.4 µM (inactive)

----------
- System: MCF7
- Experimental Details: NCI tumour cell line growth inhibition, 48 h
The source made the active and inactive calls. Cut-off read from the data, not from the text of the source: active = GI50 up to about 1.1 µM and inactive = higher.
A correct response names exactly one class from Yes (active), No (inactive)

> print(dat)
                                   compound  label.value
1  CC1(C)CC(=O)c2c(nc3c4c([nH]c(-c5ccc(Br)cc5)c24)CC(C)(C)C3)C1           No
2             Cc1cc(-c2nc3ccc(F)cc3s2)ccc1N          Yes
3  COc1cccc(C2c3cc4c(cc3OC3COC(=O)C32)OCO4)c1OC (centres undefined)           No
4          CC(NC(=O)c1ccccc1)(C(=O)O)C(=O)O           No
5     CCn1c(=O)c2c3ccc(O)cc3oc2c2ccc(O)cc21           No

Dear all, I need the recorded test outcome for OC(CC(CC(O)(C(F)(F)F)C(F)(F)F)=NN=C(CC(O)(C(F)(F)F)C(F)(F)F)CC(O)(C(F)(F)F)C(F)(F)F)(C(F)(F)F)C(F)(F)F , thank you.
No

Assay outcome for CCNC(=S)N/N=C/c1cc([N+](=O)[O-])ccc1O : what was it?
Yes

# fetch the recorded call for C#C[C@]1(O)CC[C@H]2[C@@H]3CCC4=C/C(=N/CCOC(=O)c5cccc6cc7ccccc7nc56)CC[C@@H]4[C@H]3CC[C@@]21C here
No

Hi, sorry to bother you, what did the test record for C[C@]12CCC(=O)[C@@H](CCC3=CC(=O)C=CC3=O)[C@@H]1CCC2=O ?
No

----------
- Tested on: MOLT-4
- Experimental Details: NCI tumour cell line growth inhibition, 48 h
Activity calls are given as the source filed them. Cut-off read from the data, not from the text of the source: active = GI50 up to about 1.1 µM and inactive = higher.
Write down the outcome that applies. Available outcomes: active, inactive

Take a look at these entries with their results.
Molecule	Assay Target	Label Value
CC(=O)OCc1cc2ccccc2nc1C(Br)(Br)Br	MOLT-4	inactive
O=C(O)CSc1nnc(-c2ccccc2O)[nH]1	MOLT-4	inactive
COc1c(OC(C)=O)c(OC(C)=O)cc2c1-c1ccc(OC)c(=O)cc1C(NC(C)=O)CC2 (centres undefined)	MOLT-4	active

What did the test return for CC(=O)O[C@@]12CO[C@@H]1C[C@@H](O)[C@@]1(C)C(=O)[C@H](O)C3=C(C)[C@@H](OC(=O)[C@H](O)[C@@H](NC(=O)c4ccccc4)c4ccccc4)C[C@@](O)([C@@H](OC(=O)c4ccccc4)C12)C3(C)C (some centres undefined) ?
active

Call for entry Nc1nc(=O)c(/N=N/c2ccccc2)c(N)[nH]1 :
inactive

----------
- Test system: SN12C
- Experimental Details: NCI tumour cell line growth inhibition, 48 h
Active and inactive are the calls of the source. Rule as the data show it: active = GI50 up to about 1.1 µM and inactive = higher.
Metric: GI50

The cases that follow already have their GI50 on record.
> print(dat)
                                   compound     measured.result
1  C=C1CC(C)(COc2ccc3c(C)cc(=O)oc3c2)OC1=O (centres undefined)  3.86 µM (inactive)
2           Cn1cnc([N+](=O)[O-])c1Sc1nnnn1C  16.3 µM (inactive)
3     CCNC(=S)N/N=C/c1cc([N+](=O)[O-])ccc1O  31.5 µM (inactive)

Which GI50 is listed for CN(CCN(C)C(=O)CCn1cc(F)c(=O)[nH]c1=O)C(=O)CCn1cc(F)c(=O)[nH]c1=O ?
> 100 µM (inactive)

// returns reported GI50 for input Cc1ccc2c(c1)-c1nc(N)c(C#N)c(-c3ccc(Cl)cc3)c1CCS2(=O)=O
55.7 µM (inactive)

GI50 lookup needed for O=[N+]([O-])c1cc([N+](=O)[O-])c(Nn2c3ccccc3c3ccccc32)c([N+](=O)[O-])c1 , thanks.
1.79 µM (inactive)

Please look up its GI50: Oc1c(OCc2nnc(CCCCCCCCc3nnc(COc4ccc5ccccc5c4O)n3Nc3ccccc3)n2Nc2ccccc2)ccc2ccccc12
13.9 µM (inactive)

Please report the recorded GI50 for COc1c(OC(C)=O)c(OC(C)=O)cc2c1-c1ccc(OC)c(=O)cc1C(NC(C)=O)CC2 (centres undefined) .
0.0348 µM (active)

# GI50 lookup, item O=C1NC(=O)C(=Cc2c3ccccc3cc3ccccc23)C(=O)N1
> 100 µM (inactive)

----------
- System: EKVX
- Experimental Details: NCI tumour cell line growth inhibition, 48 h
The source made the active and inactive calls. Rule as the data show it: active = GI50 up to about 1.1 µM and inactive = higher.
Metric: GI50

Compound	GI50
O=C(NCCCCCCNC(=O)NC1OCC(O)C(O)C1O)NC1OCC(O)C(O)C1O (stereo unspecified)	> 100 µM (inactive)
C[N+](C)(C)CC1CCC/C1=N/O (stereo unspecified)	> 100 µM (inactive)
CC1C(O)Oc2cc3c(cc2C1c1ccccc1O)OCO3 (stereo unspecified)	43.6 µM (inactive)
CC(=O)NC1C(OCc2ccccc2)OC(CO)C(O)C1OC(C)C(=O)NC(C(=O)NC(CCC(=O)NCCCC(=O)Nc1ccc2c(c1)CN1C(=O)c3ccccc3C1=N2)C(N)=O)C(C)C (stereo unspecified)	> 100 µM (inactive)

Continue with the next compound.
I am curious: what GI50 value has been reported for Cn1c2ccccc2c2ccc3c(c21)C(=O)c1ccc2c4ccccc4n(C)c2c1C3=O ?
> 100 µM (inactive)

----------
- Test system: SK-OV-3
- Experimental Details: NCI tumour cell line growth inhibition, 48 h
Activity calls are given as the source filed them. No stated cut-off is given here; in the data, active = GI50 up to about 1.1 µM and inactive = higher.
Metric: GI50

Known GI50 results, listed for orientation:
> print(dat)
                                   compound      measured.result
1  Cc1cc(C)nc(NS(=O)(=O)c2ccc(NC(=O)c3ccc4nc5ccccc5c(Nc5ccc(S(N)(=O)=O)cc5)c4c3)cc2)n1  > 100 µM (inactive)
2                N#Cc1nc(Nc2ccc(Cl)cc2)sc1N   21.5 µM (inactive)
3              N=C(CC(=O)Nc1ccccn1)c1ccccc1  > 100 µM (inactive)
4  CCCNC(=O)C(C)(Cl)C(=O)c1ccccc1O (configuration not stated)  > 100 µM (inactive)
5  CCOC(=O)c1c2ccc(/C=C/c3ccccc3)ccc-2c(C(=O)OCC)c1N   86.1 µM (inactive)
6  CCOC(=O)c1sc(N/N=C2\NC(=O)/C(=C/c3ccc([N+](=O)[O-])cc3)S2)nc1C   31.4 µM (inactive)

Recorded GI50 for CCOC(=O)C1=C(C)Nc2ccccc2S1 , please?
> 100 µM (inactive)

What does the record list as GI50 for OC(CC(O)(C(F)(F)F)C(F)(F)F)C(O)c1ccco1 (configuration not stated) ?
> 10 µM (inactive)

Recorded GI50 of CN(C(=O)c1ccco1)C(=S)N1CCN(c2ccccc2)CC1 , please.
> 100 µM (inactive)

Report GI50 for FC(F)(F)C(C1=NC(C(F)(F)F)(C(F)(F)F)N=C(N2CCOCC2)O1)C(F)(F)F please.
31.3 µM (inactive)

----------
- Tested on: MCF7
- Experimental Details: NCI tumour cell line growth inhibition, 48 h
The source made the active and inactive calls. Rule as the data show it: active = GI50 up to about 1.1 µM and inactive = higher.
Mark one answer only. Choices: 1.0 for active, 0.0 for inactive

Example entries and their recorded answers appear below.
> print(dat)
                                   compound  assay.target  label.value
1        Cc1nc2ccccc2c(=O)n1NC(=O)Cc1ccccc1          MCF7          0.0
2               CC(C)OP(=O)(OC(C)C)C(C)(C)O          MCF7          0.0
3               CCCC/N=C(/c1ccccc1)N1CCOCC1          MCF7          0.0
4  O=C(CC(=O)N1N=C(c2ccccc2)C(/N=N/c2ccc(S(=O)(=O)CCOS(=O)(=O)O)cc2)C1=O)Nc1ccc(Cl)cc1 (stereo unspecified)          MCF7          0.0
5  O=C(N/N=C(COc1ccccc1)\N=C\c1cccnc1)c1ccncc1          MCF7          0.0
6  CN(C)CCNC(=O)Cn1cnc2cccc([N+](=O)[O-])c2c1=O          MCF7          0.0

Lab log entry: O=C(/C=C/c1ccc(O)c(O)c1)c1cc(O)cc(O)c1 — outcome as called in the assay?
0.0

Please share the test call associated with Oc1ccccc1/C=N/c1nc2cc3sc(/N=C/c4ccccc4O)nc3cc2s1 .
0.0

What was the test verdict on Cc1nc2ccc(C(F)(F)F)cc2nc1NCc1ccc(Cl)c(Cl)c1 ?
0.0
